The reported numbers originate from paper PMC4673829.

targetOrTestSystem: T1, JMJD2A tudor domains
T1 construct: JMJD2A (KDM4A), tudor domains; source: E. coli Rosetta BL21 DE3 pLysS, purified (Ni-NTA, TEV protease, Superdex 75)
T1 sequence (O75164 whole entry, species assumed, looked up): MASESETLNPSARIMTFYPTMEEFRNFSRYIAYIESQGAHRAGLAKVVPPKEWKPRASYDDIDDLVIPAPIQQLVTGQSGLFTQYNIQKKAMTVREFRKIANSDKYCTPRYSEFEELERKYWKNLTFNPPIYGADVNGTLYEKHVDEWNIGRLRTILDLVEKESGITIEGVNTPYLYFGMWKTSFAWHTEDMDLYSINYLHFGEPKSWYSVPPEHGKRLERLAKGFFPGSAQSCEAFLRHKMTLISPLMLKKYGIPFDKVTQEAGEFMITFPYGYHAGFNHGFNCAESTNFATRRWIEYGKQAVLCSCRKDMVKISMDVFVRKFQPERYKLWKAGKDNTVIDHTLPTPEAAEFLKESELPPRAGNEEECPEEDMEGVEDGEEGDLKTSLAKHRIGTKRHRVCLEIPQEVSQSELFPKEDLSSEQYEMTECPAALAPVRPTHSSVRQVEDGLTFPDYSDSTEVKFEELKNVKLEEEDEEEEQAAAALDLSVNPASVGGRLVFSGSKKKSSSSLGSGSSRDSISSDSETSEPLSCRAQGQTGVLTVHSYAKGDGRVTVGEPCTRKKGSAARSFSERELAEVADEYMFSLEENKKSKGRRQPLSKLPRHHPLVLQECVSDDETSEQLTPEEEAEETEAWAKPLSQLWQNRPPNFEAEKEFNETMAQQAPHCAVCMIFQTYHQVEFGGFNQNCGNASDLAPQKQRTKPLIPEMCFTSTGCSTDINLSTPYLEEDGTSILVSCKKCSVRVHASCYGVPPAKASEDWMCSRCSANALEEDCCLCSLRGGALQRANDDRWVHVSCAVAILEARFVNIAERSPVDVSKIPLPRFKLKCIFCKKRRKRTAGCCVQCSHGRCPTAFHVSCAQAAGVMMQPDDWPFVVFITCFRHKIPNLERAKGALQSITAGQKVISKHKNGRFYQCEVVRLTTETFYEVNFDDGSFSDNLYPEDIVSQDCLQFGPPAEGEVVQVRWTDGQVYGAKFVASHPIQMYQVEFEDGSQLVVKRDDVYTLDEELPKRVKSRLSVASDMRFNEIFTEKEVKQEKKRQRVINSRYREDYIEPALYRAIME
procedureSummary: ITC; 350–600 μM H3K4me3 or H3C4me3 peptide titrated to 25–40 μM protein (JMJD2A–H3C4me3: 3 mM peptide to 200 μM JMJD2A); 19 injections; Microcal Auto-iTC200; one set of sites model; 5–7 repeats
conditionsUsed: both partners purified
measure: Kd (µM)
Please give a number only; it is taken to be in µM.

Note to self: Kd recorded for ARTXQTARKS (Cme3 (neutral carba analogue of trimethyllysine, tert-butyl in place of trimethylammonium) at position 4; carboxylic acid at the C terminus) [10-mer H3C4me3 histone peptide] was 16
